assay: Metabolic stability in rat liver microsomes assessed as intrinsic clearance; assay type: ADME, Microsome; details: read-out: CLH
experimentalReadout: CLint scaled (mL/min/kg)
Enter your answer as a number in mL/min/kg; do not include the unit.

compound Cc1nc2ccc(-c3ccnc(N)c3)nc2n1-c1ccc(N2CCN(CC#Cc3ccc(N4CCC(C(=O)N5CCC(n6cc(CNc7cccc8c7C(=O)N(C7CCC(=O)NC7=O)C8=O)cn6)CC5)CC4)nc3)CC2)c(F)c1 (stereo unspecified) , CLint scaled observed: 14

* * *

biological target: Protein cereblon/Dual specificity tyrosine-phosphorylation-regulated kinase 1B (Homo sapiens) (UniProt Q9Y463+Q96SW2); experiment: PROTAC activity at CRBN/HibiT-tagged DYRK1B in Flp-In-T-REx-293 cells assessed as induction of degradation of DYRK1B by measuring maximum efficacy at 1 uM measured after 24 hrs by NanoBiT luciferase assay relative to control; type: cell-based
experimentalReadout: Emax (%)
Enter your answer as a number in %; do not include the unit.

compound: Cc1nc2ccc(-c3ccnc(N)c3)nc2n1-c1ccc(N2CCN(C(=O)CN3CCC(CC(=O)N4CCC(n5cc(CNc6cccc7c6C(=O)N(C6CCC(=O)NC6=O)C7=O)cn5)CC4)CC3)CC2)c(F)c1 (stereo not given)
experimentalReadout: Emax
u: %
number: 65
//
compound: Cc1nc2ccc(-c3ccnc(N)c3)nc2n1-c1ccc(N2CCN(CCOCCOCCOCCOCCNc3cc4c(cc3F)C(=O)N(C3CCC(=O)NC3=O)C4=O)CC2)c(F)c1 (stereo not given)
experimentalReadout: Emax
u: %
number: 58

compound Cc1nc2ccc(-c3ccnc(N)c3)nc2n1-c1ccc(N2CCN(C(=O)CCCN3CCN(Cc4ccc(CNc5cccc6c5CN(C5CCC(=O)NC5=O)C6=O)cc4)CC3)CC2)c(F)c1 (stereo not given) , Emax observed: 54

compound Cc1nc2ccc(-c3ccnc(N)c3)nc2n1-c1ccc(N2CCN(C(=O)CCN3CCN(Cc4ccc(CNc5cccc6c5CN(C5CCC(=O)NC5=O)C6=O)cc4)CC3)CC2)c(F)c1 (stereo not given) , Emax observed: 14

compound Cc1nc2ccc(-c3ccnc(N)c3)nc2n1-c1ccc(N2CCN(CCOCCOCCOCCC(=O)N3CCN(Cc4ccc(CNc5cccc6c5CN(C5CCC(=O)NC5=O)C6=O)cc4)CC3)CC2)c(F)c1 (stereo not given) , Emax observed: 0

* * *

assay: Half life in mouse at 10 mg/kg, po administered as single dose; type: ADME, organism-based; details: in vivo
experimentalReadout: half-life (min)
Enter your answer as a number in min; do not include the unit.

compound Cc1nc2ccc(-c3ccnc(N)c3)nc2n1-c1ccc(N2CCN(CC#Cc3ccc(N4CCC(C(=O)N5CCC(n6cc(CNc7cccc8c7C(=O)N(C7CCC(=O)NC7=O)C8=O)cn6)CC5)CC4)nc3)CC2)c(F)c1 (stereo unspecified) , half-life observed: 127

* * *

target: Protein cereblon/Dual specificity tyrosine-phosphorylation-regulated kinase 1A (Homo sapiens, UniProt Q13627+Q96SW2); test: PROTAC activity at CRBN/HibiT-tagged DYRK1A in Flp-In-T-REx-293 cells assessed as induction of degradation of DYRK1A by measuring maximum efficacy at 1 uM measured after 24 hrs by NanoBiT luciferase assay relative to control; format: cell-based
experimentalReadout: Emax
Remember to quote the unit after the number.

compound: Cc1nc2ccc(-c3ccnc(N)c3)nc2n1-c1ccc(N2CCN(CCOCCOCCOCCOCCNc3cc4c(cc3F)C(=O)N(C3CCC(=O)NC3=O)C4=O)CC2)c(F)c1 (stereo not given)
result: 80%

compound Cc1nc2ccc(-c3ccnc(N)c3)nc2n1-c1ccc(N2CCN(CCOCCOCCOCCC(=O)N3CCN(c4ccc5c(c4)C(=O)N(C4CCC(=O)NC4=O)C5=O)CC3)CC2)c(F)c1 (stereo not given) , Emax observed: 9%

compound Cc1nc2ccc(-c3ccnc(N)c3)nc2n1-c1ccc(N2CCN(CCOCCOCCOCCC(=O)NC3CN(c4ccc5c(c4)C(=O)N(C4CCC(=O)NC4=O)C5=O)C3)CC2)c(F)c1 (stereo not given) , Emax observed: 27%

compound Cc1nc2ccc(-c3ccnc(N)c3)nc2n1-c1ccc(N2CCN(C(=O)CN3CCC(CC(=O)N4CCC(n5cc(CNc6cccc7c6C(=O)N(C6CCC(=O)NC6=O)C7=O)cn5)CC4)CC3)CC2)c(F)c1 (stereo not given) , Emax observed: 78%

compound Cc1nc2ccc(-c3ccnc(N)c3)nc2n1-c1ccc(N2CCN(C(=O)CCCN3CCN(Cc4ccc(CNc5cccc6c5CN(C5CCC(=O)NC5=O)C6=O)cc4)CC3)CC2)c(F)c1 (stereo not given) , Emax observed: 75%

compound Cc1nc2ccc(-c3ccnc(N)c3)nc2n1-c1ccc(N2CCN(C(=O)CCCCN3CCN(Cc4ccc(CNc5cccc6c5CN(C5CCC(=O)NC5=O)C6=O)cc4)CC3)CC2)c(F)c1 (stereo not given) , Emax observed: 63%

compound Cc1nc2ccc(-c3ccnc(N)c3)nc2n1-c1ccc(N2CCN(CCOCCOCCOCCC(=O)N3CCN(Cc4ccc(CNc5cccc6c5CN(C5CCC(=O)NC5=O)C6=O)cc4)CC3)CC2)c(F)c1 (stereo not given) , Emax observed: 0%

compound Cc1nc2ccc(-c3ccnc(N)c3)nc2n1-c1ccc(N2CCN(C(=O)CCN3CCN(Cc4ccc(CNc5cccc6c5CN(C5CCC(=O)NC5=O)C6=O)cc4)CC3)CC2)c(F)c1 (stereo not given) , Emax observed: 24%

compound Cc1nc2ccc(-c3ccnc(N)c3)nc2n1-c1ccc(N2CCN(C(=O)CCCN3CCC(n4cc(CNc5cccc6c5C(=O)N(C5CCC(=O)NC5=O)C6=O)cn4)CC3)CC2)c(F)c1 (stereo not given) , Emax observed: 79%

compound Cc1nc2ccc(-c3ccnc(N)c3)nc2n1-c1ccc(N2CCN(CC#Cc3ccc(N4CCC(C(=O)N5CCC(n6cc(CNc7cccc8c7C(=O)N(C7CCC(=O)NC7=O)C8=O)cn6)CC5)CC4)nc3)CC2)c(F)c1 (stereo not given) , Emax observed: 84%

* * *

assay: Permeability of the compound by PAMPA method; type: ADME; conditions: read-out: permeability
experimentalReadout: Papp

compound Cc1nc2ccc(-c3ccnc(N)c3)nc2n1-c1ccc(N2CCN(CC#Cc3ccc(N4CCC(C(=O)N5CCC(n6cc(CNc7cccc8c7C(=O)N(C7CCC(=O)NC7=O)C8=O)cn6)CC5)CC4)nc3)CC2)c(F)c1 (stereo unspecified) , Papp observed: < 0.005 ×10⁻⁶ cm/s

* * *

assay: Metabolic stability in rat liver microsomes assessed as half life; assay type: ADME, Microsome
experimentalReadout: half-life (min)
Enter your answer as a number in min; do not include the unit.

molecule Cc1nc2ccc(-c3ccnc(N)c3)nc2n1-c1ccc(N2CCN(CC#Cc3ccc(N4CCC(C(=O)N5CCC(n6cc(CNc7cccc8c7C(=O)N(C7CCC(=O)NC7=O)C8=O)cn6)CC5)CC4)nc3)CC2)c(F)c1 (stereo unspecified) , half-life observed: 98.4

* * *

assay: Clearance in mouse at 1 mg/kg, iv administered as single dose; format: ADME, organism-based; conditions: in vivo
experimentalReadout: clearance (mL/min/kg)
Enter your answer as a number in mL/min/kg; do not include the unit.

compound Cc1nc2ccc(-c3ccnc(N)c3)nc2n1-c1ccc(N2CCN(CC#Cc3ccc(N4CCC(C(=O)N5CCC(n6cc(CNc7cccc8c7C(=O)N(C7CCC(=O)NC7=O)C8=O)cn6)CC5)CC4)nc3)CC2)c(F)c1 (stereo unspecified) , clearance observed: 7.1

* * *

molecular target: Protein cereblon/Dual specificity tyrosine-phosphorylation-regulated kinase 1B (Homo sapiens, UniProt Q96SW2+Q9Y463); assay: Competitive binding affinity to CRBN/DYRK1B (unknown origin) assessed as dissociation constant
experimentalReadout: Kd (nM)
Enter your answer as a number in nM; do not include the unit.

Answered examples (5):
compound: Cc1nc2ccc(-c3ccnc(N)c3)nc2n1-c1ccc(N2CCN(C(=O)CCCCN3CCN(Cc4ccc(CNc5cccc6c5CN(C5CCC(=O)NC5=O)C6=O)cc4)CC3)CC2)c(F)c1 (stereo not given)
number: 8.4
--
compound: Cc1nc2ccc(-c3ccnc(N)c3)nc2n1-c1ccc(N2CCN(C(=O)CCCN3CCN(Cc4ccc(CNc5cccc6c5CN(C5CCC(=O)NC5=O)C6=O)cc4)CC3)CC2)c(F)c1 (stereo not given)
number: 5.2
--
compound: Cc1nc2ccc(-c3ccnc(N)c3)nc2n1-c1ccc(N2CCN(CCOCCOCCOCCOCCNc3cc4c(cc3F)C(=O)N(C3CCC(=O)NC3=O)C4=O)CC2)c(F)c1 (stereo not given)
number: 43
--
compound: Cc1nc2ccc(-c3ccnc(N)c3)nc2n1-c1ccc(N2CCN(CCOCCOCCNc3cccc4c3C(=O)N(C3CCC(=O)NC3=O)C4=O)CC2)c(F)c1 (stereo not given)
number: 3.5
--
compound: Cc1nc2ccc(-c3ccnc(N)c3)nc2n1-c1ccc(N2CCN(CC#Cc3ccc(N4CCC(C(=O)N5CCC(n6cc(CNc7cccc8c7C(=O)N(C7CCC(=O)NC7=O)C8=O)cn6)CC5)CC4)nc3)CC2)c(F)c1 (stereo not given)
number: 16

compound Cc1nc2ccc(-c3ccnc(N)c3)nc2n1-c1ccc(N2CCN(CCOCCOCCOCCNc3cccc4c3C(=O)N(C3CCC(=O)NC3=O)C4=O)CC2)c(F)c1 (stereo not given) , Kd observed: 3.4

compound Cc1nc2ccc(-c3ccnc(N)c3)nc2n1-c1ccc(N2CCN(CCOCCNc3cccc4c3C(=O)N(C3CCC(=O)NC3=O)C4=O)CC2)c(F)c1 (stereo not given) , Kd observed: 2.4

compound Cc1nc2ccc(-c3ccnc(N)c3)nc2n1-c1ccc(N2CCN(C(=O)CCN3CCN(Cc4ccc(CNc5cccc6c5CN(C5CCC(=O)NC5=O)C6=O)cc4)CC3)CC2)c(F)c1 (stereo not given) , Kd observed: 47

compound Cc1nc2ccc(-c3ccnc(N)c3)nc2n1-c1ccc(N2CCN(C(=O)CCCN3CCC(n4cc(CNc5cccc6c5C(=O)N(C5CCC(=O)NC5=O)C6=O)cn4)CC3)CC2)c(F)c1 (stereo not given) , Kd observed: 5.1

compound Cc1nc2ccc(-c3ccnc(N)c3)nc2n1-c1ccc(N2CCN(CCOCCOCCOCCC(=O)N3CCN(Cc4ccc(CNc5cccc6c5CN(C5CCC(=O)NC5=O)C6=O)cc4)CC3)CC2)c(F)c1 (stereo not given) , Kd observed: 16
